Listing: Ratio of selected compounds
species on record: Homo sapiens; assay: Ratio of the inhibitory concentration against MMP-2 to that of MMP-13
Recorded endpoint: Ratio

In [3]: df
Out[3]:
                                 smiles_text  recorded_endpoint  measured_value
 0  COc1c(CO)ccc2oc(C(=O)Nc3ccc(-c4ccc(S(=O)(=O)N[C@H](C(=O)O)C(C)C)cc4)cc3)c(C)c12              Ratio             180
 1  CC(=O)c1ccc2oc(C(=O)Nc3ccc(-c4ccc(S(=O)(=O)N[C@H](C(=O)O)C(C)C)cc4)cc3)c(C)c2c1O              Ratio              20
 2  CCc1ccc2oc(C(=O)Nc3ccc(-c4ccc(S(=O)(=O)N[C@H](C(=O)O)C(C)C)cc4)cc3)c(C)c2c1O              Ratio             250
 3  COc1c(I)ccc2oc(C(=O)Nc3ccc(-c4ccc(S(=O)(=O)N[C@H](C(=O)O)C(C)C)cc4)cc3)c(C)c12              Ratio             650
 4  Cc1c(C(=O)Nc2ccc(-c3ccc(S(=O)(=O)N[C@H](C(=O)O)C(C)C)cc3)cc2)oc2ccc(Br)cc12              Ratio              27
 5  CCc1ccc2oc(C(=O)Nc3ccc(-c4ccc(S(=O)(=O)N[C@H](C(=O)O)C(C)C)cc4)cc3)c(C)c2c1OC              Ratio             660
 6  Cc1c(C(=O)Nc2ccc(-c3ccc(S(=O)(=O)N[C@@H](C(=O)O)C(C)C)cc3)cc2)oc2ccccc12              Ratio              10
 7  COc1cccc2oc(C(=O)Nc3ccc(-c4ccc(S(=O)(=O)N[C@H](C(=O)O)C(C)C)cc4)cc3)cc12              Ratio               7
 8  Cc1c(C(=O)Nc2ccc(-c3ccc(S(=O)(=O)N[C@H](C(=O)O)C(C)C)cc3)cc2)oc2ccc(Cl)c(OC(C)C)c12              Ratio             275
 9  COc1cccc2oc(C(=O)Nc3ccc(-c4ccc(S(=O)(=O)N[C@H](C(=O)O)C(C)C)cc4)cc3)c(C)c12              Ratio             110
10  COc1c(C)ccc2oc(C(=O)Nc3ccc(-c4ccc(S(=O)(=O)N[C@H](C(=O)O)C(C)C)cc4)cc3)c(C)c12              Ratio             330
11  COc1c(C#N)ccc2oc(C(=O)Nc3ccc(-c4ccc(S(=O)(=O)N[C@H](C(=O)O)C(C)C)cc4)cc3)c(C)c12              Ratio             175
12  COc1c(Br)ccc2oc(C(=O)Nc3ccc(-c4ccc(S(=O)(=O)N[C@H](C(=O)O)C(C)C)cc4)cc3)cc12              Ratio              18
13  CC(C)[C@H](NS(=O)(=O)c1ccc(-c2ccc(NC(=O)c3cc4cc(Br)ccc4o3)cc2)cc1)C(=O)O              Ratio               1
14  COc1c(Br)ccc2oc(C(=O)Nc3ccc(-c4ccc(S(=O)(=O)N[C@H](C(=O)O)C(C)C)cc4)cc3)c(C)c12              Ratio             740

* * *

Listing: IC50 of selected compounds
biological target: Interstitial collagenase (Homo sapiens, UniProt P03956)
Sequence (P03956 whole entry): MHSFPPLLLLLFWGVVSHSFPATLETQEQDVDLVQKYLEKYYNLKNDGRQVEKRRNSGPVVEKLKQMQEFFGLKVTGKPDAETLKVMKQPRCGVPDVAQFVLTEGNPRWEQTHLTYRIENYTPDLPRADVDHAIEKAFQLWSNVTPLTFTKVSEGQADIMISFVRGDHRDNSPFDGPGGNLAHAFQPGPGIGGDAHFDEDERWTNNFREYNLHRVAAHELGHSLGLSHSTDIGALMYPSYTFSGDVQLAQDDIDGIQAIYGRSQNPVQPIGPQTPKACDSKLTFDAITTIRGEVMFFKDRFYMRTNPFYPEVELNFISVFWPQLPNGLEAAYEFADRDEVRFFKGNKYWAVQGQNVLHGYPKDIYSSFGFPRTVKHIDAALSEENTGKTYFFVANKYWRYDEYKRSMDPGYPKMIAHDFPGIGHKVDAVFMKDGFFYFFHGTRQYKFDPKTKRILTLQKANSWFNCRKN
Recorded endpoint: IC50 (µM)

>>> df
                                smiles_text                               test_system  measured_value
0  COc1c(I)ccc2oc(C(=O)Nc3ccc(-c4ccc(S(=O)(=O)N[C@H](C(=O)O)C(C)C)cc4)cc3)c(C)c12  Interstitial collagenase (Homo sapiens, UniProt P03956)              60
1  Cc1c(C(=O)Nc2ccc(-c3ccc(S(=O)(=O)N[C@H](C(=O)O)C(C)C)cc3)cc2)oc2ccc(Cl)c(OC(C)C)c12  Interstitial collagenase (Homo sapiens, UniProt P03956)            37.1
2  COc1c(C)ccc2oc(C(=O)Nc3ccc(-c4ccc(S(=O)(=O)N[C@H](C(=O)O)C(C)C)cc4)cc3)c(C)c12  Interstitial collagenase (Homo sapiens, UniProt P03956)            37.1
3  CCc1ccc2oc(C(=O)Nc3ccc(-c4ccc(S(=O)(=O)N[C@H](C(=O)O)C(C)C)cc4)cc3)c(C)c2c1O  Interstitial collagenase (Homo sapiens, UniProt P03956)            23.4
4  CCc1ccc2oc(C(=O)Nc3ccc(-c4ccc(S(=O)(=O)N[C@H](C(=O)O)C(C)C)cc4)cc3)c(C)c2c1OC  Interstitial collagenase (Homo sapiens, UniProt P03956)              28

* * *

Listing: inhibition of selected compounds
molecular target: Disintegrin and metalloproteinase domain-containing protein 17 (Homo sapiens, UniProt P78536); experiment: Percent inhibition at 25 uM against TACE
Sequence (P78536 whole entry, the tested form may be a part): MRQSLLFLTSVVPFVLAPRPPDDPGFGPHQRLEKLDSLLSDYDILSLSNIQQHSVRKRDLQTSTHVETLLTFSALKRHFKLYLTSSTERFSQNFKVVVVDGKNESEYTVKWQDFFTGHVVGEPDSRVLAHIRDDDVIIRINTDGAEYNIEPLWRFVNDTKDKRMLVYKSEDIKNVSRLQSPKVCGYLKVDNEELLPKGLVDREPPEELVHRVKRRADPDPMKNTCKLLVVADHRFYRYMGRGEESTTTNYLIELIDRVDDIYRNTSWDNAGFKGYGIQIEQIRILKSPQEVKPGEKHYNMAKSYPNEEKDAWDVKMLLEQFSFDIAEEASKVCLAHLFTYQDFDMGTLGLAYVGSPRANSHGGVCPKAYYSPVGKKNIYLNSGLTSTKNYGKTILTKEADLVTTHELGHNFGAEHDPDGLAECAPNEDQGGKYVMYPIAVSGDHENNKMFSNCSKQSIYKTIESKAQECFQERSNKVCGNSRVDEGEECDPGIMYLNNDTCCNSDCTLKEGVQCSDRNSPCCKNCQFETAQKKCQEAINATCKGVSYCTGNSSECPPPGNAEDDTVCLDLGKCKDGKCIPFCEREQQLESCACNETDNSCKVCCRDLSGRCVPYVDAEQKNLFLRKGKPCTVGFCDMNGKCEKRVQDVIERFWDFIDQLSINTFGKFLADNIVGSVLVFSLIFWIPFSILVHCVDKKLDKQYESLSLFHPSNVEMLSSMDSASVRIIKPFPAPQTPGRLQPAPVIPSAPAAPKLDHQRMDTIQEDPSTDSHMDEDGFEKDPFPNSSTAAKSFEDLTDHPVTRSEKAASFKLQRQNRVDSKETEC
Recorded endpoint: inhibition (%)

                                smiles_text  unit_text  measured_value
0  CCc1ccc2oc(C(=O)Nc3ccc(-c4ccc(S(=O)(=O)N[C@H](C(=O)O)C(C)C)cc4)cc3)c(C)c2c1OC          %              43
1  CCc1ccc2oc(C(=O)Nc3ccc(-c4ccc(S(=O)(=O)N[C@H](C(=O)O)C(C)C)cc4)cc3)c(C)c2c1O          %              42
2  COc1c(I)ccc2oc(C(=O)Nc3ccc(-c4ccc(S(=O)(=O)N[C@H](C(=O)O)C(C)C)cc4)cc3)c(C)c12          %              38
3  Cc1c(C(=O)Nc2ccc(-c3ccc(S(=O)(=O)N[C@H](C(=O)O)C(C)C)cc3)cc2)oc2ccc(Cl)c(OC(C)C)c12          %              98
4  COc1c(C)ccc2oc(C(=O)Nc3ccc(-c4ccc(S(=O)(=O)N[C@H](C(=O)O)C(C)C)cc4)cc3)c(C)c12          %              39

* * *

species: Homo sapiens; test: Ratio of the inhibitory concentration against MMP-2 to that of MMP-13
Recorded endpoint: Ratio

                                smiles_text  recorded_endpoint  measured_value
0  CCc1c(C(=O)Nc2ccc(-c3ccc(S(=O)(=O)N[C@H](C(=O)O)C(C)C)cc3)cc2)oc2ccccc12              Ratio              32
1  CCc1ccc2oc(C(=O)Nc3ccc(-c4ccc(S(=O)(=O)N[C@H](C(=O)O)C(C)C)cc4)cc3)c(C)c2c1OCc1ccccc1              Ratio              65
2  CC(C)[C@H](NS(=O)(=O)c1ccc(-c2ccc(NC(=O)c3oc4ccccc4c3-c3ccccc3)cc2)cc1)C(=O)O              Ratio               6
3  CCc1ccc2oc(C(=O)Nc3ccc(-c4ccc(S(=O)(=O)N[C@H](C(=O)O)C(C)C)cc4)cc3)c(C)c2c1OC(C)C              Ratio             260

meta.source: ChEMBL document CHEMBL1143494
